These measurements were taken from patent US20170226158A1.

# target-or-system: T1, KRAS (UniProt P01116-2 1-188, limits assumed)
# T1 construct: Target antigen in phage ELISA; construct not described
# procedure-details: phage ELISA on target antigen, signal as % of parental WT
% antigen binding activity retained (relative to parental) values by entry

Worked examples follow.
KRAS mut9 (designed binder, Net charge 14; Tested on phage) DLGKKLLEAARAGQNDKVRILMANGAKVNARDHTGFTPLHLAAQHGHRKIVKVLLKNGANVKAVDWFGRTPLHLAAKMGHRKIVEVLLKHGANVKADDHNGRTPLHLAAWEGHRKIVKVLLKYGADVNAQDKFGKTAFDISIENGNEKLAKILQKL    > 50%
KRAS mut11 (designed binder, Net charge 16; Tested on phage) DLGKKLLEAARAGQNDKVRILMANGAKVNARDHTGFTPLHLAAQHGHRKIVKVLLKNGAKVNAVDWFGRTPLHLAAKMGHRKIVKVLLKHGADVNADDHNGRTPLHLAAWEGHRKIVKVLLKYGAKVNAQDKFGKTAFDISIENGNEKLAKILQKL    > 50%

Per the record, KRAS mut6 (designed binder, Net charge 10; Tested on phage) DLGKKLLEAARAGQNDKVRILMANGAKVNARDHTGFTPLHLAAQHGHRKIVKVLLKNGADVNAVDWFGRTPLHLAAKMGHLEIVKVLLKHGAKVNADDHNGRTPLHLAAWEGHLEIVKVLLKYGAKVNAQDKFGKTAFDISIENGNEKLAKILQKL has % antigen binding activity retained (relative to parental) of > 50%
